// values below are reported solubility kinetic
test_conditions: buffer; pH 7.4; 200.0 µM
endpoint: solubility kinetic (µg/mL)

> print(dat)
                                    compound  value.units  result.modifier  recorded.result
 1      O=C(NC1CC1)C1CCN(C(=O)c2ccccc2Cl)CC1        µg/mL                >               46
 2  COc1ccc2[nH]c3c(=O)n(CCN4CCOCC4)cnc3c2c1        µg/mL                >             49.3
 3  CCOC(=O)N1CCN(C(=O)C2CCN(C(=O)Nc3ccccc3)CC2)CC1        µg/mL                >             58.3
 4             O=C1C=C(N2CCOCC2)C2(CCCCC2)O1        µg/mL                >             35.6
 5         COc1cc(C=O)cc(Cl)c1OC(=O)N1CCOCC1        µg/mL                =             39.5
 6         N=c1oc2ccccc2cc1C(=O)Nc1cccc(F)c1        µg/mL                =              0.3
 7        N#Cc1ccccc1NC(=O)COC(=O)CCc1ccccc1        µg/mL                >             46.3
 8  O=C(Cn1c(=S)[nH]c2ncccc2c1=O)NCCc1ccccc1        µg/mL                =              2.1
 9  Cc1ccc(CN(C)C(=O)c2cccc(S(=O)(=O)N3CCc4ccccc43)c2)cc1        µg/mL                =              5.8
10  CCOC(=O)c1ccc(NC(=O)CCC(=O)NCc2ccco2)cc1        µg/mL                =              4.7
11  COc1ccc(CCN2C(=O)CSC2c2ccc(F)cc2)cc1 (centres undefined)        µg/mL                =             34.4
12       COc1ccccc1NCCC(=O)OCC(=O)Nc1ccccc1F        µg/mL                >               52
13    COC(=O)c1c(C)oc(C)c1S(=O)(=O)NC(C)(C)C        µg/mL                >             43.4
14  CCOC1C(=O)NC(=O)N1Cc1ccccc1 (centres undefined)        µg/mL                =             29.8

====

// values below are reported solubility kinetic
test_conditions: buffer; pH 7.4; 200.0 µM
endpoint: solubility kinetic

> print(dat)
                                   molecule            endpoint  recorded.result
1                 O=C(CN1CCOCC1)NCCc1ccccc1  solubility kinetic     > 37.2 µg/mL
2                Cc1ccc(CNC(=O)c2cccnc2)cc1  solubility kinetic     > 33.9 µg/mL
3  CS(=O)(=O)O.c1cnc(N2CCN(Cc3ccc4c(c3)OCO4)CC2)nc1  solubility kinetic     > 59.2 µg/mL
4      O=C(CSc1nccc(=O)[nH]1)NCc1ccc(Cl)cc1  solubility kinetic     > 46.5 µg/mL
5  Cc1ccc(NC(=O)Cn2c([N+](=O)[O-])cnc2C)cc1  solubility kinetic     > 41.1 µg/mL
6               CC(=O)Nc1ccc(C(=S)NCCCO)cc1  solubility kinetic     > 37.8 µg/mL
7  CCCn1c(=O)c(C(=O)Nc2cc(C)ccn2)c(O)c2ccccc21  solubility kinetic      < 0.2 µg/mL
8  CCCOC(=O)CC1C(=O)NCCN1C(=O)OC(C)(C)C (stereo not drawn)  solubility kinetic     > 45.1 µg/mL

Where do these numbers come from? They come from PubChem BioAssay AID1996.
